GI50 overview
test system: HOP-62; assay: NCI tumour cell line growth inhibition, 48 h
Activity calls are given as the source filed them. Cut-off read from the data, not from the text of the source: active = GI50 up to about 1.1 µM and inactive = higher.

// known answers, use as guide
molecule | GI50
COc1cc(Nc2cnc3cc(C(F)(F)F)ccc3n2)cc(OC)c1OC | > 100 µM (inactive)
Cc1cc(S(=O)(=O)Nc2nnc3c4ccccc4cnn23)c(S)cc1Cl | 52.8 µM (inactive)
Cc1cc(S(=O)(=O)N/C(=C(\C#N)C(=O)c2ccc(Cl)cc2)[n+]2ccc(N(C)C)cc2)c([S-])cc1Cl | 38.1 µM (inactive)
O=C1c2c(Br)sc(Br)c2[C@@H](NC(=O)C(F)(F)F)C1Br (some centres not stated) | 12.9 µM (inactive)
CCN(CC)CCN1C(=O)c2c(c(-c3ccccc3)c3ccccc3c2-c2ccccc2)C1=O | 71.1 µM (inactive)
c1cnn(C23C4C5C6C4C2C6C53)c1 (configuration not stated) | > 100 µM (inactive)
N=C(N)C1CN(CCc2c[nH]cn2)C(=O)NC1=O (configuration not stated) | > 100 µM (inactive)
C#CC(C)(C)Oc1cc(O)c2c(=O)c3ccccc3n(C)c2c1 | 94 µM (inactive)
O=C(O)c1ccc(-c2nc3cc(Cl)ccc3[nH]2)cc1 | > 100 µM (inactive)
Cc1cc(S(=O)(=O)O)ccc1/N=N/c1c(O)ccc2ccccc12 | > 100 µM (inactive)

Q: Under HOP-62, report GI50 for CN(C)Cc1cc(C=O)cc(CN(C)C)c1O
Result: > 100 µM (inactive)

###

tested on: UO-31; assay: NCI tumour cell line growth inhibition, 48 h
Active and inactive are the calls of the source. Rule as the data show it: active = GI50 up to about 1.1 µM and inactive = higher.
Tick one outcome: T = active, F = inactive

compound | target_or_system | discrete_label
C=CCOC(=O)CCCCCCCCCCCCCCCOC(=O)c1c(CCC[C@@H](C)O[Si](C)(C)C(C)(C)C)nc([O-])[n+]2c1CC[C@H]2CC1(CC/C=C\[C@H](CC)O[Si](C(C)C)(C(C)C)C(C)C)OCCO1 | UO-31 | F
O=C(O)c1cc2ccccc2c(/N=N/c2ccc(S(=O)(=O)Nc3nccs3)cc2)c1O | UO-31 | F
COC(=O)c1ccc(NCC2=C(Br)C(=O)C=CC2=O)cc1Cl | UO-31 | F

From here, focus on the item given below.
Q: For O=C(O)c1ccc(Nc2ccnc3cc(Cl)ccc23)cc1O , which call appears in the assay record?
Result: F

###

tested on: KM12; test: NCI tumour cell line growth inhibition, 48 h
The source made the active and inactive calls. Cut-off read from the data, not from the text of the source: active = GI50 up to about 1.1 µM and inactive = higher.
GI50 overview

Q: Recall and state the measured GI50 for CCOC(=O)c1nc2ccc(C(F)(F)F)cc2nc1NCc1ccc(OC)cc1 .
Result: 36 µM (inactive)

Q: Recall and state the measured GI50 for COc1ccc(CNC(=O)[C@H](Cc2ccc(O)cn2)NC(C)=O)cc1OC .
Result: > 100 µM (inactive)

Q: Recall and state the measured GI50 for CC1=NN(c2nc(N)nc(COCc3nc(N)nc(N4N=C(C)CC4(C)C)n3)n2)C(C)(C)C1 .
Result: > 100 µM (inactive)

Q: Recall and state the measured GI50 for CCOC(=O)C1C(c2ccc(Cl)cc2Cl)NC(c2ccc(C)cc2)C(C(=O)OC)S1(=O)=O (centres undefined) .
Result: > 100 µM (inactive)

###

GI50 overview
system: IGROV-1; assay: NCI tumour cell line growth inhibition, 48 h
Activity calls are given as the source filed them. No stated cut-off is given here; in the data, active = GI50 up to about 1.1 µM and inactive = higher.

molecule | target_or_system | GI50
O=C(NCCCCCCCCCCCCNC(=O)c1cccc2ccccc12)c1cccc2ccccc12 | IGROV-1 | > 55.3 µM (inactive)

Q: Recall and state the measured GI50 for CCCCCCCc1ccc(-c2nnc(/N=N/c3ccc(OCCCCC)cc3)s2)s1 .
Result: 79.1 µM (inactive)

Q: Recall and state the measured GI50 for CC(C)C(Sc1nc(N)nc2nc[nH]c12)C(=O)O (stereo not drawn) .
Result: > 100 µM (inactive)

###

tested on: NCI-H226; test: NCI tumour cell line growth inhibition, 48 h
Active and inactive are the calls of the source. No stated cut-off is given here; in the data, active = GI50 up to about 1.1 µM and inactive = higher.
Tick one outcome: 1.0 = active, 0.0 = inactive

Below are worked cases with known answers.
molecule | discrete_label
C[C@H](N)C(=O)Nc1ccc(-c2nc3ccccc3s2)cc1 | 0.0
CCCCCC#CCOC(=O)C(=[N+]=[N-])P(=O)(c1ccccc1)c1ccccc1 | 0.0

Q: For CC(=O)Nc1ccc2c(c1)/C(=C\c1ccc([N+](C)(C)C)cc1)c1ccccc1-2 , which call appears in the assay record?
Result: 0.0

Q: For COc1ccc(/C=C\c2cc(OC)c(OC(C)=O)c(OC)c2)cc1 , which call appears in the assay record?
Result: 0.0

Q: For Cn1cnc([N+](=O)[O-])c1Sc1nc2cccnc2[nH]1 , which call appears in the assay record?
Result: 0.0

Q: For O=C(CN1C(=O)c2ccccc2C1=O)NC1(C(=O)O)CCCC1 , which call appears in the assay record?
Result: 0.0

Q: For COc1cc(C2c3cc4c(cc3[C@@H](Nc3cccc(C(C)=O)c3)C3COC(=O)[C@H]23)OCO4)cc(OC)c1O (some centres undefined) , which call appears in the assay record?
Result: 1.0

Q: For COC(=O)c1c(C)cccc1C1CN=NC12Cc1ccc(C)cc1C2=O (centres undefined) , which call appears in the assay record?
Result: 0.0

Q: For CC(C)Cn1cnc2c(NCC(C)O)nc3ccccc3c21 (centres undefined) , which call appears in the assay record?
Result: 0.0

###

test system: COLO 205; experiment: NCI tumour cell line growth inhibition, 48 h
Activity calls are given as the source filed them. No stated cut-off is given here; in the data, active = GI50 up to about 1.1 µM and inactive = higher.
assay_metric: GI50

chemical_string | GI50
NN/C(=N\S(=O)(=O)c1cc2ccccc2s1)Nc1ccc(Cl)cc1 | 17.3 µM (inactive)

Q: Recall and state the measured GI50 for C#CCOCn1ccc(=O)[nH]c1=O .
Result: > 100 µM (inactive)

Q: Recall and state the measured GI50 for COc1ccc2nc3cc(Cl)ccc3c(NCCC[N+](C)(C)CCCCCCCCCCCCCCCC[N+](C)(C)CCCNc3c4ccc(Cl)cc4nc4ccc(OC)cc34)c2c1 .
Result: 1.83 µM (inactive)

Q: Recall and state the measured GI50 for CN(Cc1cnc2nc(N)nc(N)c2n1)c1ccc(C(=O)NCCCC(=O)O)cc1 .
Result: > 100 µM (inactive)

Q: Recall and state the measured GI50 for CN1CCN(c2ccc3nc(-c4cc(O)c5c(nc(CO)n5C)c4O)[nH]c3n2)CC1 .
Result: 15.9 µM (inactive)

Q: Recall and state the measured GI50 for C=C(CN(C)C)C(=O)c1ccc(C(=O)C(=C)CN(C)C)cc1 .
Result: > 100 µM (inactive)

###

system: MDA-MB-435; assay: NCI tumour cell line growth inhibition, 48 h
Activity calls are given as the source filed them. No stated cut-off is given here; in the data, active = GI50 up to about 1.1 µM and inactive = higher.
GI50 overview

compound | assay_metric | assay_value
CSc1nc2ccccc2c(=O)n1/N=C1\C(=O)N(CN2CCOCC2)c2ccc(Cl)cc21 | GI50 | 28.4 µM (inactive)

Q: Under MDA-MB-435, report GI50 for CC1=NN(C(=O)c2ccncc2)C(=O)C1
Result: > 100 µM (inactive)

Q: Under MDA-MB-435, report GI50 for O=c1c2ccc(Cl)cc2oc2c(CNc3ccc(S(=O)(=O)Nc4ncccn4)cc3)cccc12
Result: > 100 µM (inactive)

Q: Under MDA-MB-435, report GI50 for O=c1oc2ccccc2c(Nc2ccc3c(c2)S(=O)(=O)c2ccccc2O3)c1[N+](=O)[O-]
Result: 23.4 µM (inactive)

Q: Under MDA-MB-435, report GI50 for CN(C)N1C(=O)c2ccccc2NC1c1ccccc1 (stereo not given)
Result: > 100 µM (inactive)

###

tested on: SW-620; assay: NCI tumour cell line growth inhibition, 48 h
Calls of active or inactive are those of the source. Cut-off read from the data, not from the text of the source: active = GI50 up to about 1.1 µM and inactive = higher.
Tick one outcome: active, inactive

Q: For Cc1cc(S(=O)(=O)Nc2nnc3c4ccccc4cnn23)c(S)cc1Cl , which call appears in the assay record?
Result: inactive

Q: For COc1ccc([C@@]23Oc4cc(OC)cc(OC)c4[C@]2(O)[C@H](O)[C@H](C(=O)N(C)C)[C@H]3c2ccccc2)cc1 [ROCAGLAMIDE] , which call appears in the assay record?
Result: active

###

system: SK-OV-3; test: NCI tumour cell line growth inhibition, 48 h
Active and inactive are the calls of the source. Rule as the data show it: active = GI50 up to about 1.1 µM and inactive = higher. Where a SMILES comes first, the peptide text is derived from it. [ ]: non-standard residue; d: D form. The star is where a group is joined. ξ: configuration not given here. ξD = NC(CC(=O)O)C(=O)O; Ac3c = NC1(C(=O)O)CC1; Boc = CC(C)(C)OC(=O)*; OBn = c1ccc(CO*)cc1
assay_metric: GI50

// known answers, use as guide
molecule | GI50
COc1cc2c(cc1OC)-c1c(cnn1C1OC(COC(C)=O)C(OC(C)=O)C(OC(C)=O)C1OC(C)=O)CC2 (stereo unspecified) | > 100 µM (inactive)
O=C(NCCCCCCCCCCCCNC(=O)c1cccc2ccccc12)c1cccc2ccccc12 | > 47.5 µM (inactive)
O=C(NC/C(Cl)=C/Cl)Nc1c2ccccc2nc2ccccc12 | > 100 µM (inactive)
CCOC(=O)C1C(c2ccc(Cl)cc2Cl)NC(c2ccc(C)cc2)C(C(=O)OC)S1(=O)=O (stereo unspecified) | > 100 µM (inactive)
CCCc1cn2c(/C=N/NC(=N)N)c(-c3cc([N+](=O)[O-])c(Cl)cc3Cl)nc2s1 | 1.91 µM (inactive)
COc1ccc(C2=C(N)c3c(OC)cccc3C2=O)cc1 | > 100 µM (inactive)
Cc1cccc(C2ON=C(c3ccccc3)N2C23CC4CC(CC(C4)C2)C3)c1 (stereo unspecified) | > 10 µM (inactive)
NCCCN(CCCN)CCc1cn(C(=O)c2ccccc2)cn1 | 11.2 µM (inactive)

Q: Recall and state the measured GI50 for Cc1ccccc1NC(=O)C(=O)C(C#N)c1ccc(Cl)cc1 (stereo unspecified) .
Result: > 100 µM (inactive)

Q: Recall and state the measured GI50 for O=C(O)Cc1c(-c2ccc([N+](=O)[O-])cc2)c(=O)oc2cc(O)ccc12 .
Result: 35.2 µM (inactive)

Q: Recall and state the measured GI50 for COC(=O)C1(NC(=O)C(CC(=O)OCc2ccccc2)NC(=O)OC(C)(C)C)CC1 (stereo unspecified) (Boc-[ξD](OBn)-[Ac3c]-OMe) .
Result: 19.6 µM (inactive)
